Ref: patent US6524625B2

- assay-protocol: Radical-entrapping action, nitro blue tetrazolium (NBT) method
- Format: biochemical
- stated-conditions: one unit = 50% inhibition of formazan formation; xanthin oxidase/xanthin/NBT
property: Radical-entrapping action

# Radical-entrapping action lookup, item O=C(O)c1cc(O)c(O)c(O)c1 [Compound 5, gallic acid]
692,000 unit/g

Then this compound: COc1c(O)cc2oc(-c3ccc(O)cc3)c(O)c(=O)c2c1O [Compound 4, 3,5,7,4′-tetrahydroxy-6-methoxy-flavone]
4,010 unit/g

Another compound: O=c1c(O)c(-c2ccc(O)cc2)oc2cc(O)cc(O)c12 [Compound 3, kaempferol]
14,000 unit/g

// same read-out, input: O=C(O)/C=C/c1ccc(O)c(O)c1 [Compound 6, caffeic acid]
418,000 unit/g

Same question, O=c1c(O)c(-c2ccc(O)cc2)oc2cc3c(c(O)c12)OCO3 [Compound 2] this time
1,830 unit/g
